Target: RIPK1 (recombinant GST-RIPK1 kinase domain, residues 1-327) (Homo sapiens (Human), UniProt Q13546)
Sequence (Q13546 1-327): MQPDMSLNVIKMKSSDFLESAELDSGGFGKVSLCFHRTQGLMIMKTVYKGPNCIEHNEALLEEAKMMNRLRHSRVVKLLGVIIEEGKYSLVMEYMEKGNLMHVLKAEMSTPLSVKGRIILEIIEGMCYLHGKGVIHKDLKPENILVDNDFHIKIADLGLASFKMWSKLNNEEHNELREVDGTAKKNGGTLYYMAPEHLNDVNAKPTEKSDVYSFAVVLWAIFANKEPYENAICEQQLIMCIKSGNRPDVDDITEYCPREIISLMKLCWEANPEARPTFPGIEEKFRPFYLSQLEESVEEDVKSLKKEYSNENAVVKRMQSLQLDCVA
Assay: RIPK1-ADP-Glo Enzymatic Assay
Assay type: biochemical
Conditions: ADP-Glo; 25 nM GST-RIPK1, 300 μM ATP; assay lower limit ~25 nM; read-out: RIPK1 V0 Ec50
pEC50: recorded values
Here pEC50 is given on a logarithmic scale as minus log10 of the concentration in mol/L.

compound	pEC50
Cc1ncc([C@@H]2CC[C@H]3OC4(CCN(C(=O)c5ccccc5)CC4F)C(=O)N32)cc1F (stereo partly shown) [Example 2.10]	6.87

For the compound shown here, O=C1N2[C@@H](CC[C@H]2c2ccccc2)OC12CCN(c1nc3cnccc3o1)CC2 [Example 4.159] , give the reported pEC50.
7.20

====

log10 of EC50: recorded values
Target: RIPK1 (recombinant GST-RIPK1 kinase domain, residues 1-327) (Homo sapiens (Human), UniProt Q13546)
Assay: RIPK1-ADP-Glo Enzymatic Assay
Type: biochemical
Conditions: ADP-Glo; 25 nM GST-RIPK1, 300 μM ATP; assay lower limit ~25 nM; read-out: RIPK1 V0 Ec50
Please be aware that the numbers have been log10-transformed from EC50 in nM.

For the compound shown here, O=C1N2[C@@H](CC[C@H]2c2ccccc2)OC12CCN(c1ncc(-c3nccs3)cn1)CC2 , give the reported log10 of EC50.
1.40

// same read-out, input: N#Cc1ccc(C(=O)N2CCC3(CC2)O[C@@H]2CC[C@@H](c4ccccc4)N2C3=O)cc1
2.54

// same read-out, input: COc1cccc([C@@H]2CC[C@H]3OC4(CCN(c5ccc(C#N)c6ncnn56)CC4)C(=O)N32)c1
1.40

// same read-out, input: O=C(c1ccccc1)N1CCC2(CC1)O[C@@H]1[C@@H](F)C[C@@H](c3ccccc3)N1C2=O
1.64

// same read-out, input: COC(=O)N1CCC2(CC1)O[C@@H]1CC[C@@H](c3cc(F)cc(F)c3)N1C2=O
2.06

====

Target: RIPK1 (recombinant GST-RIPK1 kinase domain, residues 1-327) (Homo sapiens (Human))
Assay: RIPK1-ADP-Glo Enzymatic Assay
Assay type: biochemical
Settings: ADP-Glo; 25 nM GST-RIPK1, 300 μM ATP; assay lower limit ~25 nM; read-out: RIPK1 V0 Ec50
EC50: recorded values
# output: bare number, implied unit µM

Consider the worked cases shown below.
compound	test_target	EC50 [µM]
N#Cc1ccc(C(=O)N2CCC3(CC2)O[C@@H]2CC[C@@H](c4cc(F)cc(F)c4)N2C3=O)cc1F [Example 5.19]	RIPK1 (recombinant GST-RIPK1 kinase domain, residues 1-327) (Homo sapiens (Human))	0.333
O=C(c1csnn1)N1CCC2(CC1)O[C@@H]1CC[C@@H](c3cc(F)cc(F)c3)N1C2=O [Example 5.49]	RIPK1 (recombinant GST-RIPK1 kinase domain, residues 1-327) (Homo sapiens (Human))	0.0781
O=C(c1nnc(-c2ccccn2)s1)N1CCC2(CC1)O[C@@H]1CC[C@@H](c3cc(F)cc(F)c3)N1C2=O [Example 6.45]	RIPK1 (recombinant GST-RIPK1 kinase domain, residues 1-327) (Homo sapiens (Human))	0.451
O=C(c1nccs1)N1CCC2(CC1)O[C@@H]1CC[C@@H](c3cc(F)cc(F)c3)N1C2=O [Example 5.35]	RIPK1 (recombinant GST-RIPK1 kinase domain, residues 1-327) (Homo sapiens (Human))	0.025
Cc1ncc(C)c(N2CCC3(CC2)O[C@@H]2CC[C@@H](c4ccccc4)N2C3=O)n1 [Example 11.34]	RIPK1 (recombinant GST-RIPK1 kinase domain, residues 1-327) (Homo sapiens (Human))	0.601

For the compound shown here, Cc1cnc([C@@H]2CC[C@H]3OC4(CCN(C(=O)c5ccccc5)CC4)C(=O)N32)cn1 [Example 6.143] , give the reported EC50.
0.0568

// same read-out, input: O=C(c1cccc2nccnc12)N1CCC2(CC1)O[C@@H]1CC[C@@H](c3cc(F)cc(F)c3)N1C2=O [Example 6.55]
0.28
